Reference source: ChEMBL document CHEMBL4387740

test: Intrinsic clearance in cynomolgus monkey liver cytosol; format: ADME, subcellular, Macaca fascicularis; details: read-out: CLH
parameter_measured: microsomal CLint (µL/min/mg)
Number only, in µL/min/mg; omit the unit.

Recorded microsomal CLint of NC(=O)C(=O)C(Cc1ccccc1)NC(=O)[C@H]1CCC(=O)N1Cc1ccccc1 (mixture of isomers) , please.
185

* * *

assay: Elimination half life in Sprague-Dawley rat at 2 mg/kg, po; type: ADME, organism-based; conditions: in vivo, read-out: beta t1/2 (converted)
parameter_measured: half-life (h)
Number only, in h; omit the unit.

Recorded half-life of O=C(NC1CC1)C(=O)C(Cc1ccccc1)NC(=O)[C@H]1CCC(=O)N1Cc1ccccc1 (stereo partly specified) , please.
5.1

* * *

target: P-gp (ABCB1) (Homo sapiens, UniProt P08183); experiment: Substrate activity at P-gp (unknown origin) expressed in MDCK2 cells assessed as efflux ratio of permeability across basolateral to apical over apical to basolateral side; format: ADME, cell-based; conditions: MDCK-MDR1
Sequence (P08183 whole entry): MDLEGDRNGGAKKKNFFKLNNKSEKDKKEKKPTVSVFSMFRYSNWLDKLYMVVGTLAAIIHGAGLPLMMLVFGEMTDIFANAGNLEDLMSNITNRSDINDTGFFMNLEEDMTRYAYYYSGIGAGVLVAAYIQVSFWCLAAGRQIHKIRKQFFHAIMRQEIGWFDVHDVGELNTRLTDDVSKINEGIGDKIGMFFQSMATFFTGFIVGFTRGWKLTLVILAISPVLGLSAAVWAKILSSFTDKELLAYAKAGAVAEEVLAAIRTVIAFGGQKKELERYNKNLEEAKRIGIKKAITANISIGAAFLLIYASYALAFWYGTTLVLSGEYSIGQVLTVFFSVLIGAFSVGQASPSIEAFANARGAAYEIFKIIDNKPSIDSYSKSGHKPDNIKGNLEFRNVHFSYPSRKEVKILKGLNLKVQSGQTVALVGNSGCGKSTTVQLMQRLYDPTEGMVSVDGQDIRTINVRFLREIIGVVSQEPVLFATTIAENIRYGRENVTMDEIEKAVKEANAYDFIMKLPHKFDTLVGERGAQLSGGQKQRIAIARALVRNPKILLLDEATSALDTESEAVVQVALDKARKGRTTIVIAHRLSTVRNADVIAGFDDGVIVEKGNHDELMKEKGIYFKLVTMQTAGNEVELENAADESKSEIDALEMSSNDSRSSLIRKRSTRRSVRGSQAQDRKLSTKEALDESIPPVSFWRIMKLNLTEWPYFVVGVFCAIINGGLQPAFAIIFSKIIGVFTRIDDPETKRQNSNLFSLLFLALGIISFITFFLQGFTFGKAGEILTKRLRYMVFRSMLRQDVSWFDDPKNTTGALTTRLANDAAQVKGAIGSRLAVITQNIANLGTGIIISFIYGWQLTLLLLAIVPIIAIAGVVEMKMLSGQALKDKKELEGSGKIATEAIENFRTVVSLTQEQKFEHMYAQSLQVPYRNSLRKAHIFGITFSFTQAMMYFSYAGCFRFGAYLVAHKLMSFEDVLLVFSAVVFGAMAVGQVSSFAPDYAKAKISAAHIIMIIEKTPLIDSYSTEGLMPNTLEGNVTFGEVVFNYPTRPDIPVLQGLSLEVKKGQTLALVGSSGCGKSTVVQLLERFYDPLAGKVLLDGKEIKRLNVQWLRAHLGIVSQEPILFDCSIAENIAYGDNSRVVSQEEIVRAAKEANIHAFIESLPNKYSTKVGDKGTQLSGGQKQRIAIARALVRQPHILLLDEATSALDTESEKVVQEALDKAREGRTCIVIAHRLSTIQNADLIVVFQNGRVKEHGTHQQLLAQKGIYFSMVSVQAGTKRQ
parameter_measured: efflux ratio
No unit in the answer, only the number.

Notebook entry, P-gp (ABCB1) (Homo sapiens, UniProt P08183) assay: efflux ratio of O=C(NC1CC1)C(=O)C(Cc1ccccc1)NC(=O)[C@H]1CCC(=O)N1Cc1ccccc1 (stereo partly specified) = ?
10.5

* * *

assay: Intrinsic clearance in human liver cytosol; format: ADME, subcellular; conditions: read-out: CLH
Please note: microsomal CLint exactly at 4 µL/min/mg is NOT MET. Only values below 4 µL/min/mg get MET.

>  <compound>
Cn1cc(CN2C(=O)CC[C@@H]2C(=O)NC(Cc2ccccc2)C(=O)C(=O)NC2CN2)cn1 (some centres not stated)

>  <class>
NOT MET

$$$$

Say whether its microsomal CLint is strictly beneath 4 µL/min/mg. Entry: O=C(NCc1ccc(F)cc1)C(=O)C(Cc1ccccc1)NC(=O)[C@H]1CCC(=O)N1Cc1ccccc1 (some centres not stated)
MET

* * *

experiment: Volume of distribution at steady state in Beagle dog at 1 mg/kg, iv; format: ADME, organism-based, Canis lupus familiaris; conditions: in vivo, read-out: Vdss
parameter_measured: Vd (L/kg)
Number only, in L/kg; omit the unit.

Recorded Vd of O=C(NC1CC1)C(=O)C(Cc1ccccc1)NC(=O)[C@H]1CCC(=O)N1Cc1ccccc1 (stereo partly specified) , please.
0.6

* * *

Entries annotated with measured Selectivity ratio
species: Homo sapiens; assay: Selectivity ratio, ratio of Ki for CatL (unknown origin) to Ki for Cal1 (unknown origin)
No unit in the answer, only the number.

These solved cases illustrate the format of a correct answer.
>  <compound>
O=C(NC1CCC1)C(=O)C(Cc1ccccc1)NC(=O)[C@H]1CCC(=O)N1Cc1ccccc1 (some centres undefined)

>  <parameter_measured>
Selectivity ratio

>  <test_value>
20

$$$$
>  <compound>
CCNC(=O)C(=O)C(Cc1ccccc1)NC(=O)[C@H]1CCC(=O)N1Cc1ccccc1 (mixture of isomers)

>  <parameter_measured>
Selectivity ratio

>  <test_value>
44

$$$$

Recorded Selectivity ratio of NC(=O)C(=O)C(Cc1ccccc1)NC(=O)[C@H]1CCC(=O)N1Cc1ccncc1 (mixture of isomers) , please.
9

Recorded Selectivity ratio of O=C(NCc1ccc(F)cc1)C(=O)C(Cc1ccccc1)NC(=O)[C@H]1CCC(=O)N1Cc1ccccc1 (some centres undefined) , please.
34

Recorded Selectivity ratio of NC(=O)C(=O)C(Cc1ccccc1)NC(=O)C1CCS(=O)(=O)N1Cc1ccccc1 (mixture of isomers) , please.
12

Recorded Selectivity ratio of NC(=O)C(=O)C(Cc1ccccc1)NC(=O)[C@H]1CCCC(=O)N1Cc1ccccc1 (mixture of isomers) , please.
21

Recorded Selectivity ratio of NC(=O)C(=O)C(Cc1ccccc1)NC(=O)[C@H]1CCC(=O)N1Cc1cccc(C(F)(F)F)c1 (mixture of isomers) , please.
11

Recorded Selectivity ratio of O=C(NC1CC1)C(=O)C(Cc1ccccc1)NC(=O)[C@H]1CCC(=O)N1Cc1ccccc1OC(F)(F)F (some centres undefined) , please.
17

Recorded Selectivity ratio of NC(=O)C(=O)C(Cc1ccccc1)NC(=O)[C@H]1CCC(=O)N1CC1CCCCC1 (mixture of isomers) , please.
2

* * *

experiment: Intrinsic clearance in human liver cytosol; format: ADME, subcellular; settings: read-out: CLH
Entries annotated with measured microsomal CLint
Number only, in µL/min/mg; omit the unit.

>  <compound>
O=C(Nc1ccccc1)C(=O)C(Cc1ccccc1)NC(=O)[C@H]1CCC(=O)N1Cc1ccccc1 (stereo not given in full)

>  <microsomal CLint / µL/min/mg>
5

$$$$
>  <compound>
O=C(NC1CC1)C(=O)C(Cc1ccccc1)NC(=O)[C@H]1CCC(=O)N1C1Cc2ccccc2C1 (stereo not given in full)

>  <microsomal CLint / µL/min/mg>
42

$$$$
>  <compound>
CCNC(=O)C(=O)C(Cc1ccccc1)NC(=O)[C@H]1CCC(=O)N1Cc1ccccc1 (mixture of isomers)

>  <microsomal CLint / µL/min/mg>
4

$$$$

Consider now this further compound.
Recorded microsomal CLint of O=C(NC1CCC1)C(=O)C(Cc1ccccc1)NC(=O)[C@H]1CCC(=O)N1Cc1ccccc1 (stereo not given in full) , please.
1

* * *

test: Intrinsic clearance in human liver cytosol; type: ADME, subcellular; details: read-out: CLH
parameter_measured: microsomal CLint

These solved cases illustrate the format of a correct answer.
>  <compound>
NC(=O)C(=O)C(Cc1ccccc1)NC(=O)[C@H]1CCC(=O)N1Cc1ccccc1 (mixture of isomers)

>  <microsomal CLint>
> 70 µL/min/mg

$$$$
>  <compound>
O=C(NC1CC1)C(=O)C(Cc1ccccc1)NC(=O)[C@H]1CCC(=O)N1Cc1ccccc1C(F)(F)F (stereo partly specified)

>  <microsomal CLint>
> 70 µL/min/mg

$$$$

Recorded microsomal CLint of O=C(NC1CC1)C(=O)C(Cc1ccccc1)NC(=O)[C@H]1CCC(=O)N1Cc1ccccc1Cl (stereo partly specified) , please.
> 70 µL/min/mg

Recorded microsomal CLint of O=C1CC[C@H](C(=O)NC(Cc2ccccc2)C(=O)C(=O)NC2CC2)N1 (stereo partly specified) , please.
< 23 µL/min/mg

Recorded microsomal CLint of O=C(NC1CC1)C(=O)C(Cc1ccccc1)NC(=O)[C@H]1CCC(=O)N1Cc1ccccc1OC(F)(F)F (stereo partly specified) , please.
> 70 µL/min/mg

Recorded microsomal CLint of O=C(NC1CC1)C(=O)C(Cc1ccccc1)NC(=O)[C@H]1CCC(=O)N1Cc1ccccc1 (stereo partly specified) , please.
< 1 µL/min/mg
